Source: PubChem BioAssay (EPA / NIEHS)

Experiment: BSK_3C_Vis: BioMAP Diversity Plus: 3C Assay for Morphology Visualization (AID 2283025);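 note: fitted both ways so gain or loss versus DMSO counts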
Conditions: primary human endothelial cells (HUVEC)
Active and inactive are the calls of the source. Rule for the calls: active = hit-call score of the fitted dose curve at least 0.9, where 1 is the maximum; inactive = score below 0.9.
Outcomes you can answer with include only these: 1.0 = active, 0.0 = inactive

Field: outcome | Entry: O=C(O)C(Cl)Cl
0.0

Field: outcome | Entry: Cc1ccc(N)cc1N
0.0

Field: outcome | Entry: CC(Cl)(Cl)C(=O)O
0.0

Field: outcome | Entry: O=C(O)C1C(C(=O)O)C2(Cl)C(Cl)=C(Cl)C1(Cl)C2(Cl)Cl (stereo not given)
0.0

Field: outcome | Entry: Nc1ccc2ccccc2c1
0.0

Field: outcome | Entry: CC(C)(C)c1ccc(O)cc1
0.0

Field: outcome | Entry: CN(C)C(=O)Cl
0.0

Field: outcome | Entry: CC(Cl)CN(C)C (stereo not given)
0.0

Field: outcome | Entry: CCOP(=S)(OCC)SCS(=O)(=O)CC
0.0

Field: outcome | Entry: Cc1ccc(O)cc1C
0.0

Field: outcome | Entry: O=[N+]([O-])c1ccc(Cl)c(Cl)c1
0.0

Field: outcome | Entry: Cc1ccc2c(c1N)C(=O)c1ccccc1C2=O
1.0

Field: outcome | Entry: CCCCc1ccccc1
0.0

Field: outcome | Entry: CCCCC(CC)COP(=O)(Oc1ccccc1)Oc1ccccc1 (stereo not given)
1.0

Field: outcome | Entry: CC(C)(C)c1ccccc1OP(=O)(Oc1ccccc1)Oc1ccccc1
1.0
